Reported log10 of Ki values follow for various molecules
- STUDY_SYSTEM: hCA I (Homo sapiens, UniProt P00915)
- Sequence (P00915 whole entry): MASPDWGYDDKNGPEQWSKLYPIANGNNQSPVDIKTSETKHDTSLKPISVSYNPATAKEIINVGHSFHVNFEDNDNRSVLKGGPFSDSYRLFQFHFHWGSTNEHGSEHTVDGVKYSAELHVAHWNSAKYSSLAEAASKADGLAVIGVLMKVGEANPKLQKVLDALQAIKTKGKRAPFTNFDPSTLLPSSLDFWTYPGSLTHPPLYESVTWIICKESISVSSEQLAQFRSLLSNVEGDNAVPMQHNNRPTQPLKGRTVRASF
- PROTOCOL_DESCRIPTION: Stopped-flow CO2 hydrase assay, hCA I
- CONDITION_NOTES: stopped flow, mean from 3 assays, errors 5–10%
Values below are the log10 of the recorded Ki, with µM as the unit.

LINE_NOTATION: CC(C)(C)c1ccc(C2=C/C(=C\c3ccc(Cl)cc3)C(=O)N2CCc2ccc(S(N)(=O)=O)cc2)cc1
STUDY_SYSTEM: hCA I (Homo sapiens, UniProt P00915)
VAL: 0.90

log10 of Ki measured on NS(=O)(=O)c1ccc(CCN2C(=O)/C(=C/c3ccccc3)C=C2c2ccc(Cl)cc2)cc1 = 0.35

log10 of Ki measured on Cc1ccc(C2=C/C(=C\c3ccc(Br)cc3)C(=O)N2CCc2ccc(S(N)(=O)=O)cc2)cc1 = 0.62

log10 of Ki measured on NS(=O)(=O)c1ccc(CCN2C(=O)/C(=C/c3ccc(F)cc3)C=C2c2ccccc2)cc1 = -0.43

log10 of Ki measured on CCc1ccc(C2=C/C(=C\c3ccccc3)C(=O)N2CCc2ccc(S(N)(=O)=O)cc2)cc1 = 0.25

log10 of Ki measured on NS(=O)(=O)c1ccc(CCN2C(=O)/C(=C/c3ccc(Cl)cc3)C=C2c2ccc(Cl)cc2)cc1 = 0.71

log10 of Ki measured on CC(C)(C)c1ccc(C2=C/C(=C\c3ccccc3)C(=O)N2CCc2ccc(S(N)(=O)=O)cc2)cc1 = 0.93

log10 of Ki measured on CCc1ccc(C2=C/C(=C\c3ccc(F)cc3)C(=O)N2CCc2ccc(S(N)(=O)=O)cc2)cc1 = -0.08

log10 of Ki measured on CCc1ccc(C2=C/C(=C\c3ccc(Cl)cc3)C(=O)N2CCc2ccc(S(N)(=O)=O)cc2)cc1 = 0.77

log10 of Ki measured on NS(=O)(=O)c1ccc(CCN2C(=O)/C(=C/c3ccc(Br)cc3)C=C2c2ccccc2)cc1 = 0.63

log10 of Ki measured on Cc1ccc(C2=C/C(=C\c3ccc(Cl)cc3)C(=O)N2CCc2ccc(S(N)(=O)=O)cc2)cc1 = 0.64

log10 of Ki measured on CC(C)(C)c1ccc(C2=C/C(=C\c3ccc(F)cc3)C(=O)N2CCc2ccc(S(N)(=O)=O)cc2)cc1 = 0.78

log10 of Ki measured on NS(=O)(=O)c1ccc(CCN2C(=O)/C(=C/c3ccccc3)C=C2c2ccccc2)cc1 = -0.20

log10 of Ki measured on Cc1ccc(C2=C/C(=C\c3ccc(F)cc3)C(=O)N2CCc2ccc(S(N)(=O)=O)cc2)cc1 = 0.40

log10 of Ki measured on Cc1ccc(C2=C/C(=C\c3ccccc3)C(=O)N2CCc2ccc(S(N)(=O)=O)cc2)cc1 = 0.51

log10 of Ki measured on NS(=O)(=O)c1ccc(CCN2C(=O)/C(=C/c3ccc(Br)cc3)C=C2c2ccc(Cl)cc2)cc1 = 0.77

The values you see were collected from paper PMC10038056.
